target: T1, human 4-1BB, full length, on transfected cells (human, UniProt Q07011 24-255); assay: FACS, CHOK1-h4-1BB cells; Ab 0.00064 ug/ml
T1 construct: whole, on cells; also called CHOK1-h4-1BB
T1 sequence (Q07011 24-255): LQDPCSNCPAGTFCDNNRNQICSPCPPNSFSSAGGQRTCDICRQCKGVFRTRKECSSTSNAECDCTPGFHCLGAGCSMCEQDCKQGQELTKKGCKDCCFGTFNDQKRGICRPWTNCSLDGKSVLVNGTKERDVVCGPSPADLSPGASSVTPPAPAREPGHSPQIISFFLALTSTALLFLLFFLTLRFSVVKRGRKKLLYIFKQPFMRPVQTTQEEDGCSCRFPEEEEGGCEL
measure: average fluorescence intensity (MFI)

- 170D7F2 (antibody, V domains shown) VH: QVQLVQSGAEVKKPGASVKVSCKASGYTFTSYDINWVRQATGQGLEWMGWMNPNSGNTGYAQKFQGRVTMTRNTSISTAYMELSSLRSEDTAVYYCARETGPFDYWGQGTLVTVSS VL: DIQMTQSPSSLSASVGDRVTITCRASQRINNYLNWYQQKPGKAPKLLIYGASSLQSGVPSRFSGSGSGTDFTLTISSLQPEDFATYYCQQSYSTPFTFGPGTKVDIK: 4.9
- 15G10D4 (antibody, V domains shown) VH: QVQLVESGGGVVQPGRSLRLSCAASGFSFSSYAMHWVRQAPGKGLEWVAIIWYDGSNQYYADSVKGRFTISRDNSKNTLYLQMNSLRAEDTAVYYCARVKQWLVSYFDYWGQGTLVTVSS VL: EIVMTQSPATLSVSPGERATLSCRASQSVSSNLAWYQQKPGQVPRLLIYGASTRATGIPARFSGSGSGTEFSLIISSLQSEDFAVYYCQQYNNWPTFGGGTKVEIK: 9.3
- 100F3C4 (antibody, V domains shown) VH: QVQLQESGPGLVKPSGTLSLTCAVSGGSISSSNWWSWVRQPPGKGLEWIGEIYHSGSTNYNPSLKSRVTMSVDKSKNQFSLELRSVTAADTAVYYCARDAVDAYYYYYGMDVWGQGTTVTVSS VL: DIQLTQSPSFLSASVGDRVTITCRASQGISSYLAWYQQKPGKAPKLLIYAASTLQSGVPSRFSGSGSGTEFTLTISSLQPEDFATYYCQHLNSYPFTFGPGTKVDLK: 2.5
- 113F6C6 (antibody, V domains shown, also called 4-1BB fully human antibody 113F6C6; 113F6F6) VH: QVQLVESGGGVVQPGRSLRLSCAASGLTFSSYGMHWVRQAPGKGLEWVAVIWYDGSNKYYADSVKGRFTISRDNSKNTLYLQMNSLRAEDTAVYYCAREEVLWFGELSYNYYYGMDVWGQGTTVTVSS VL: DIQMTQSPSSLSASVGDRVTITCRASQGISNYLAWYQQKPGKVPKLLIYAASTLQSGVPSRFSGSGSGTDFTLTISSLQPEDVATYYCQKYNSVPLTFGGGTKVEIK: 4.8

The reported measurements were obtained from patent US20200347144A1.
